Recorded Response values for a group of binders are listed next.
# measurement_target: T1, recombinant human CD3 epsilon/delta heterodimer (human, UniProt P07766 23-126; P04234 22-105)
# T1 construct: Recombinant heterodimer used as analyte in Octet; also called hCD3 E/D; human CD3E/D
# T1 sequence (P07766 23-126, stated change not applied, chain 1 of 2): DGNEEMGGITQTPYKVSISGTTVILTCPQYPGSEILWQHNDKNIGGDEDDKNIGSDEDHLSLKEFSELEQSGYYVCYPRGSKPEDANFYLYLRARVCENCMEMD
# T1 sequence (P04234 22-105, stated change not applied, chain 2 of 2): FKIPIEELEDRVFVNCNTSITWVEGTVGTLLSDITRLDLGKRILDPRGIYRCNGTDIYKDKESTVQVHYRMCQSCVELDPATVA
# measurement_notes: BLI (Octet), mAb 5 ug/mL on FAB2G sensor, hCD3 E/D 200-50 nM

// below: answered binders
1) ABL-CD3-80 (antibody, V domains shown, mAb purified from hybridoma; chimeric AlivaMab IgG (human VH, CH1 and upper hinge; mouse middle hinge, CH2, CH3; human light chain)) VH: EVQLVESGGGLVKPGGSLRLSCAASGFTFSGYSMNWVRQAPGKGLEWVSSISSRSRYIYYADSVQGRFTISRDNSKNSLFLQMNSLRAEDTAVYYCGRDWRELLLDYWGQGTLVTVSS VL: SYELTQPPSVSVSPGQTARITCSGDALPKKYAYWYQQKSGQAPVLVIYEDSKRPSGIPERFSGSSSGTMATLTISGAQVEDEADYYCYSTDSSGNHSWVFGGGTKLTVL; 0.36
2) ABL-CD3-70 (antibody, V domains shown, mAb purified from hybridoma; chimeric AlivaMab IgG (human VH, CH1 and upper hinge; mouse middle hinge, CH2, CH3; human light chain)) VH: EVQLVESGGGLVKPGGSLRLSCAASGFTFSTYIMNWVRQAPGKGLEWVSSITSSSSYIYYADSVKGRFTISRDNAKNSLYLQMNSLRAEDTAVYYCAREKWELLFFDYWGQGTLVTVSS VL: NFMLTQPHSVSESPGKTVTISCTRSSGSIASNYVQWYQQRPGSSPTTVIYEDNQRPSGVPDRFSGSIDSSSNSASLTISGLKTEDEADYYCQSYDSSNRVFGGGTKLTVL; 0.26

Query (binder): ABL-CD3-86 (antibody, V domains shown, mAb purified from hybridoma; chimeric AlivaMab IgG (human VH, CH1 and upper hinge; mouse middle hinge, CH2, CH3; human light chain)) VH: EVQLVESGGGLVKPGGSLRLSCAASGFTFSRYSMNWVRQAPGKGLEWVSTISRSSRYIYYGDSVKGRFTISRDNAKNSLLLQMNSLRAEDTAVYYCARDHNWSFDYWGKGILVTVSS VL: NFMLTQPLSVSESPGKTLTISCTRNSGSIASNYVQWYRQRPGSSPTTVIYEDKQRPSGVPDRFSGSIDSSSNSASLTISGLKAEDEADYYCQSCDSSNVVFGGGTTLTVL ; field requested: Response
1.1
